Hello, the source for this data is patent US20100298213A1, in case you need it.

# Subject Of Test: insulin receptor on mouse adipocytes (mouse, UniProt P15208 28-1372)
# Sequence (P15208 28-1372): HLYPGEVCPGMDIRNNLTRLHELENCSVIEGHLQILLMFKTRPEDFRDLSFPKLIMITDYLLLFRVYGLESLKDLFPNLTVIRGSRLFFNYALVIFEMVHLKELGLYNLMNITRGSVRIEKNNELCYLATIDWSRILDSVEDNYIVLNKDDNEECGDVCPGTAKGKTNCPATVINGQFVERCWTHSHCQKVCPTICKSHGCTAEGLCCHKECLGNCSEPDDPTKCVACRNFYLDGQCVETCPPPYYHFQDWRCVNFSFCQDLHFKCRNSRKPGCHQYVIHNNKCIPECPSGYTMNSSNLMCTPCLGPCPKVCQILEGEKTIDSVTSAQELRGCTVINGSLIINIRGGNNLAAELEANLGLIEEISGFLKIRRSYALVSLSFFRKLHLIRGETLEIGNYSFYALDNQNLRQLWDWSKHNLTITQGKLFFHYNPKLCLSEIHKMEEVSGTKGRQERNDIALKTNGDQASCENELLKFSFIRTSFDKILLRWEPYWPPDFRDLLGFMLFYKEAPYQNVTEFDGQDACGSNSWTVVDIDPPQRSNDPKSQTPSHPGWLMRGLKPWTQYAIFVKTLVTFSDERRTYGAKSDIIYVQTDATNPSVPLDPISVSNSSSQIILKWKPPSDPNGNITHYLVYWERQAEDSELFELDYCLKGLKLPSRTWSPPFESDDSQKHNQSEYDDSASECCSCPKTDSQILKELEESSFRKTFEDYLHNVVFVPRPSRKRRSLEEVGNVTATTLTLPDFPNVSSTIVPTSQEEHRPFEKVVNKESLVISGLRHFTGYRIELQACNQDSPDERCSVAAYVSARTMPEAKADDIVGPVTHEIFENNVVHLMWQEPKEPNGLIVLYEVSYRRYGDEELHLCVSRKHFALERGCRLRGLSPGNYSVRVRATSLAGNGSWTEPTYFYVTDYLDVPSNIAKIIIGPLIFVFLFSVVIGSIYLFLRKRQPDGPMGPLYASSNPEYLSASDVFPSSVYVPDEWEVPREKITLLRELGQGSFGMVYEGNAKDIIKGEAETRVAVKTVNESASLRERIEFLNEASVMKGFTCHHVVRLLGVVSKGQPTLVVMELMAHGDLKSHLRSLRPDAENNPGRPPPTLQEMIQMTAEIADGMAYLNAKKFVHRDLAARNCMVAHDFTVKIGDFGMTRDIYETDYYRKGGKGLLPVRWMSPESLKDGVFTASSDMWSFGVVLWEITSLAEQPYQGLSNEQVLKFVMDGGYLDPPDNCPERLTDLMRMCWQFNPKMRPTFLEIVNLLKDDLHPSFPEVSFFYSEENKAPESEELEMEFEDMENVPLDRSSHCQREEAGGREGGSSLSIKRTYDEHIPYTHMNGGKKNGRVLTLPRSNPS
# Procedure Details: cell-based or functional assay
Ends that are not written are not given here.
Cut-off 10 nM on EC50 (FFC): below means rule met, at or above means rule not met.

Binder	Assigned Label
Ac-SLEHEWAQIHCEVYGRGCPSESFYHWFERQL (cysteine pairing not given here) [674]	rule not met
SLEEEWAQVECEVYERGCPSESFYDWFERQL [S696]	rule not met
HLEEEWSEIQCELWGRGCPSEDFYDWFEAQLHA [617]	rule met
SLEEEWAQIEAEVWGRGAPPSESFYDWFERQLGY [649]	rule not met
SLEEEWAQHECEVYGRGCPSESFYDWFERQL [688]	rule not met
Ac-SLEEEWAQIECEVWGRGCPSEGFYNAIELLS (cysteine pairing not given here) [S726]	rule not met
Ac-SLEEEWAQIECEVYGRGCPSESFYHWFERQL (cysteine pairing not given here) [S665]	rule met
YEEESFYGWFERQLGEE [732]	rule not met
SLEEEWAQVECEVYGRNCPSESFYDWFERQL [683]	rule met
Ac-SLEEEWAQIQCEVWGRGCPSESFYDWFEAQLHA (cysteine pairing not given here) [634]	rule met
Ac-SLEEEWAQVECEVYGRGCPSESFYDWFERQL (cysteine pairing not given here) [699]	rule met
SLEEEWAQVECEVYGRVCPSESFYDWFERQL [693]	rule not met
